We begin with a simple list: items and their reported pIC50.
Target: tyrosinase
Test: Tyrosinase-inhibiting activity
Conditions: mushroom tyrosinase, tyrosine substrate, pH 6.8, 37° C., 10 minutes, absorbance at 475 nm
pIC50: −log10 of the molar value.

compound: O=C(OCc1cc(=O)c(O)co1)c1cccc(O)c1O [Example 5]
pIC50: 4.85

compound: O=C(OCc1cc(=O)c(O)co1)c1ccc(O)c(O)c1 [Example 4]
pIC50: 5.40

compound: O=C(OCc1cc(=O)c(O)co1)c1cccc(O)c1 [Example 3]
pIC50: 4.82

compound: O=C(OCc1cc(=O)c(O)co1)c1ccc(O)cc1 [Example 1]
pIC50: 5.00

compound: O=C(OCc1cc(=O)c(O)co1)c1ccccc1O [Example 2]
pIC50: 4.82

compound: O=C(OCc1cc(=O)c(O)co1)c1ccc(O)cc1O [Example 6]
pIC50: 5.22
